Listed compounds paired with reported log10(IC50)
# experimental.system: Human plasma kallikrein (Homo sapiens (Human), UniProt P03952)
# Sequence (P03952 391-638 limits assumed): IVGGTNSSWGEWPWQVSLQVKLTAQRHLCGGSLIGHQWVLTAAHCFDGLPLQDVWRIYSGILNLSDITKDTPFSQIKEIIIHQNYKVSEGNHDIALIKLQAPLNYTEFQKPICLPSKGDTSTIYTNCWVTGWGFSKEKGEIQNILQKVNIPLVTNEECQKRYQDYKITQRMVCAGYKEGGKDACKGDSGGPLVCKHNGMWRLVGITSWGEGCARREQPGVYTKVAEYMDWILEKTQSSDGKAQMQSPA
# Sequence (P03952 20-390 partner limits assumed): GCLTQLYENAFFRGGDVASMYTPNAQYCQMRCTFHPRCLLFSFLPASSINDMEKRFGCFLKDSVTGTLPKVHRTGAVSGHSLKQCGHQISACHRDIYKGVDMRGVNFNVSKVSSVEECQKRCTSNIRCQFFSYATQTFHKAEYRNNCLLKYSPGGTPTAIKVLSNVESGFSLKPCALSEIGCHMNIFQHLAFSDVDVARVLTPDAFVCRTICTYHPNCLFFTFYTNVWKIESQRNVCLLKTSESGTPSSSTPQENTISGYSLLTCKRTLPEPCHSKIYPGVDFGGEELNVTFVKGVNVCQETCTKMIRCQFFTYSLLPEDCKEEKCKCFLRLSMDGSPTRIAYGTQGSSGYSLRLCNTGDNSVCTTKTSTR
# assay.explanation: Plasma Kallikrein Assay
# condition.details: purified Human plasma kallikrein 0.5 nM, substrate Acetyl-K-P-R-AFC, pH 7.4; read-out: PKal IC50
Scale: decimal log of IC50, IC50 in nM.

Ask: For Human plasma kallikrein (Homo sapiens (Human), UniProt P03952), provide log10(IC50) of C[C@H]1CCN(c2ccc(CNC(=O)c3cncc(N4CC[C@]5(C4)OC(=O)Nc4ccc(Cl)c(F)c45)c3)cn2)C1 [Example 3] please.
Reply: 0.98

Ask: For Human plasma kallikrein (Homo sapiens (Human), UniProt P03952), provide log10(IC50) of O=C1Nc2ccc(Cl)c(F)c2[C@]2(CCN(c3cncc4c3CCN(Cc3ccc(Cn5ccccc5=O)cc3)C4)C2)O1 [Example 51] please.
Reply: 1.66

Ask: For Human plasma kallikrein (Homo sapiens (Human), UniProt P03952), provide log10(IC50) of O=C1Nc2ccc(Cl)c(F)c2[C@]2(CCN(c3cncc(C(=O)NCc4ccc(N5CCC5)nc4)n3)C2)O1 [Example 37] please.
Reply: 1.65

Ask: For Human plasma kallikrein (Homo sapiens (Human), UniProt P03952), provide log10(IC50) of Cc1cnn(Cc2ccc(CNC(=O)c3cc(N4CC[C@]5(C4)OC(=O)Nc4ccc(Cl)c(F)c45)ncn3)cc2)c1 [Example 19] please.
Reply: 1.41

Ask: For Human plasma kallikrein (Homo sapiens (Human), UniProt P03952), provide log10(IC50) of Cc1cnn(Cc2ccc(CNC(=O)c3ccnc(N4CC[C@]5(C4)OC(=O)Nc4ccc(Cl)c(F)c45)c3)cc2)c1 [Example 22] please.
Reply: 0.67

Ask: For Human plasma kallikrein (Homo sapiens (Human), UniProt P03952), provide log10(IC50) of O=C1Nc2ccc(Cl)c(F)c2[C@]2(CCN(c3cncc(C(=O)NCc4ccc(N5CCCCC5)nc4)n3)C2)O1 [Example 41] please.
Reply: 1.55

Ask: For Human plasma kallikrein (Homo sapiens (Human), UniProt P03952), provide log10(IC50) of O=C1Nc2ccc(Cl)c(F)c2[C@]2(CCN(c3cncc(C(=O)NCc4ccc(Cn5ccccc5=O)nc4)n3)C2)O1 [Example 14] please.
Reply: 0.20
